PROTOCOL DETAILS: AUC (0 to infinity) in Sprague-Dawley rat at 0.25 mg/kg, iv
Format: ADME, organism-based, Plasma
Design: dose 0.25 mg/kg, route intravenous, time infinity
CONDITIONS USED: Sprague-Dawley, plasma
ASSAY ENDPOINT: log10(AUC(0-inf)) (log10 of the value in µM·h)
Friendly reminder: values = log10 of AUC(0-inf), unit µM·h.

// below: answered compounds
MOLECULE: COc1cnc2ccc([C@H](C)c3nnc4c(F)cc(-c5cnn(C)c5)cn34)cc2c1
EXPERIMENTAL VALUE: 0.65

MOLECULE: COc1cnc2ccc([C@H](C)c3nnc4c(F)cc(-c5cn(C)cn5)cn34)cc2c1
EXPERIMENTAL VALUE: 0.43

MOLECULE: COc1cnc2ccc([C@H](C)c3nnc4c(F)cc(-c5cc(C)no5)cn34)cc2c1
EXPERIMENTAL VALUE: 0.95

MOLECULE: COc1cnc2ccc([C@@](C)(F)c3nnc4c(F)cc(-c5cc(C)no5)cn34)cc2c1
EXPERIMENTAL VALUE: 0.38

MOLECULE: Cc1cc(-c2cc(F)c3nnc(C(F)(F)c4ccc5ncccc5c4)n3c2)on1
EXPERIMENTAL VALUE: 1.27

MOLECULE: COc1cnc2ccc(C(F)(F)c3nnc4c(F)cc(-c5cscn5)cn34)cc2c1
EXPERIMENTAL VALUE: 0.81

MOLECULE: Cc1cc(-c2cc(F)c3nnc([C@](C)(F)c4ccc5ncccc5c4)n3c2)sn1
EXPERIMENTAL VALUE: -0.43

MOLECULE: COc1cnc2ccc([C@@](C)(F)c3nnc4c(F)cc(-c5cc(C)ns5)cn34)cc2c1
EXPERIMENTAL VALUE: -0.28

MOLECULE: COc1cnc2ccc([C@H](C)c3nnc4c(F)cc(-c5cc(C)ns5)cn34)cc2c1
EXPERIMENTAL VALUE: 1.02

Continue with the compound presented below.
INPUT: Looking for the measured log10(AUC(0-inf)) of Cn1cc(-c2cc(F)c3nnc(C(F)(F)c4ccc5ncccc5c4)n3c2)cn1 , can you help?
OUTPUT: 1.65

###

Catalogue of bioavailability readings, one per entry.
PROTOCOL DETAILS: Oral bioavailability in Sprague-Dawley rat at 2 mg/kg
Format: ADME, organism-based
CONDITIONS USED: in vivo
Reply numerically in %, unit not repeated.

MOLECULE: Cc1cc(-c2cc(F)c3nnc([C@](C)(F)c4ccc5ncccc5c4)n3c2)sn1
UNIT TEXT: %
bioavailability: 27
//
MOLECULE: COc1cnc2ccc([C@H](C)c3nnc4c(F)cc(-c5cc(C)no5)cn34)cc2c1
UNIT TEXT: %
bioavailability: 42

INPUT: Looking for the measured bioavailability of COc1cnc2ccc([C@H](C)c3nnc4c(F)cc(-c5cn(C)cn5)cn34)cc2c1 , can you help?
OUTPUT: 27

###

PROTOCOL DETAILS: Oral bioavailability in Sprague-Dawley rat at 2 mg/kg
Assay type: ADME, organism-based
CONDITIONS USED: in vivo
ASSAY ENDPOINT: bioavailability (%)
Reply numerically in %, unit not repeated.

INPUT: Looking for the measured bioavailability of Cc1cc(-c2cc(F)c3nnc(C(F)(F)c4ccc5ncccc5c4)n3c2)on1 , can you help?
OUTPUT: 62

INPUT: Looking for the measured bioavailability of Fc1cc(-c2cscn2)cn2c(C(F)(F)c3ccc4ncccc4c3)nnc12 , can you help?
OUTPUT: 110

INPUT: Looking for the measured bioavailability of Fc1cc(-c2cnn(C3CC3)c2)cn2c(C(F)(F)c3ccc4ncccc4c3)nnc12 , can you help?
OUTPUT: 40

INPUT: Looking for the measured bioavailability of COCCOc1cnc2ccc([C@H](C)c3nnc4c(F)cc(-c5cc(C)no5)cn34)cc2c1 , can you help?
OUTPUT: 46

INPUT: Looking for the measured bioavailability of Cn1cc(-c2cc(F)c3nnc(C(F)(F)c4ccc5ncccc5c4)n3c2)cn1 , can you help?
OUTPUT: 110
